experiment: amyloid nucleation score (Sup35N fusion, yeast selection) (log enrichment); library NNK2; higher = more nucleation; inactive = no reads after selection;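 note: zero at mode of non-aggregating sequences after 7 days selection at 30°C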
observable: amyloid nucleation score

substance	observed.result
CDYWYYIGRRNVEMEHRVTC	0.148
YFVVCAHPESYSIINRFATV	6.31
CTSASGTSPGWNKRGRNWGD	5.52
VFYSWKKLVSVLTSRYGFHV	-0.965
LTWFWMHSYSSFRIENHVDD	2.18
WAKCRLTIMTKWSLLCGGLG	1.43
RFCAMTYERLCVFVIF	0.197
SHEMGGFHNSNL	-1.56
CNVSCFVRVVFKWIIS	2.33
TGFSLVFSWFFLNG	3.68
CSIVVNQARCDGSCNYRKVM	9.73
ANRNRYNLHWDMG	0.946
FYASLHNSFFSVLWTDMTFS	-0.487
EYSMHTWCRYKEDFSRGASG	2.98
SARPELCMPIIRLCGSREDQ	-0.056
GPCGVVVNFHRSCFCRFEFL	7.61
RIKCRTLLGQFLMAVVIEMY	0.309
VMCSWVGDLWFCESIRAQEV	8.04
GSFLFYCILPIYFLGAWMRV	-1.4
CCVDDRWVDARPWGSRNSRA	0.491
SANHMKTDA	0.436
VVMNLMEFMVRVSVLDNAEG	4.47
ITCHGVVFSWLTRELLYTGL	-0.702
WDVIELF	-1.4
NGDVTVMITF	5.46
VGLWLTRVPPFVYGYRGSVS	0.165
MCYCLYNVGPCGDGH	1.23
VDVPMNMIRWSQCNQ	1.22
TPGLCSNL	-1.44
FYWVLMNYGQLCCWFW	1.79
RDSKFRMPLKWKAFFMGVER	1.17
QETFDFCM	-1.65
QLWSAWWHTVKKTGRRWWHR	0.921
GFDGLRVLLNEHNVIAK	0.771
DSDHFA	-1.58
